B1: EHEE_rd4_0086 (parent)
chain: EIHIRTNGEEQARKVYKMLAKRNYDVKIEQHNGQWVVTAS

- Variants of: B1
- testMethodNotes: folding stability dG (cDNA display proteolysis); higher = more stable
- condition: PBS, room temperature
The variants listed here are annotated with their folding stability dG.
readoutName: folding stability dG (kcal/mol)

    mutationname  measvalue
 0           H3L       2.14
 1          Y16Q       1.38
 2          Q30H       1.93
 3          N23F       2.79
 4          G33D       1.35
 5           G8F       2.22
 6           E1P       1.91
 7          Q11D       1.67
 8          M18I       1.81
 9          N32G       1.86
10          D25Q       2.23
11          V15M       1.62
12           E1Q       2.17
13          V15C        2.6
14           T6W      0.843
15           E1A       2.08
16           R5V       2.32
17          R13H       1.32
18           H3G      0.661
19           I4V       1.46
20          E10P       1.37
21          K21T       1.67
22          R13C       2.74
23           R5G      0.692
24          Y16R       1.15
25          K17Q        2.1
26           N7W       2.08
27          Y24I       1.42
28          A39V       2.51
29           E1F       2.51
30          E10Q       1.81
31           R5M       1.98
32          K14G      0.786
33          Q34S       1.67
34          Q34L       1.86
35          S40G       1.33
36          E29G       1.48
37          R13I       1.67
38          V36A      0.857
39          V15H      0.525
40           E1H       2.46
41          Y16K       1.07
42           E1Y        2.5
43          M18F       2.25
44           N7P       1.32
45          V36Q       1.07
46          A12Y      -0.25
47          V36E      0.934
48          E29Y       2.48
49          E10A       2.22
50          E10I       1.84
